biological target: recombinant human PARP (Homo sapiens); assay: Measurement of PARP enzymatic activity (transfer of radiolabeled ADP-ribose from NAD+ to protein acceptor); format: biochemical; settings: Table 2; read-out: PARP IC50
The entries below come with measured pIC50 values attached.
Units for pIC50: none; it is -log10 of a concentration expressed in mol/L.

Worked cases, pIC50 given:
>>> df
                                   compound  observed
0  CN(CCc1ccccn1)C(=O)c1ccc2[nH]c3c4c(c5c(c3c2c1)C(=O)NC5=O)CCC4      7.62
1  CC(=O)NCc1nc(-c2ccc3[nH]c4c5c(c6c(c4c3c2)C(=O)NC6=O)CCC5)cs1      7.70
2  O=C(CCC(=O)N1CCCCCCC1)c1ccc2[nH]c3c4c(c5c(c3c2c1)C(=O)NC5=O)CCC4      7.59

Continue with the compound presented below.
pIC50 in this record for Cc1sc(N)nc1-c1ccc2[nH]c3c4c(c5c(c3c2c1)C(=O)NC5=O)CCC4 : 7.30

----------
The entries below come with measured IC50 values attached.
biological target: recombinant human PARP (Homo sapiens); assay: Measurement of PARP enzymatic activity (transfer of radiolabeled ADP-ribose from NAD+ to protein acceptor); assay type: biochemical; details: PARP IC50 (nM), Table 8
// return numeric value only (unit: nM, not printed)

Worked cases, IC50 given:
>>> df
                                   compound  observed
0  O=C(NN1CCOCC1)Oc1ccc2[nH]c3c4c(c5c(c3c2c1)C(=O)NC5=O)CCC4 [Compound 15k]        20
1  O=C(NCc1cccnc1)Oc1ccc2[nH]c3c4c(c5c(c3c2c1)C(=O)NC5=O)CCC4 [Compound 15f]        34
2  O=C1NC(=O)c2c1c1c(c3[nH]c4ccc(OC(=O)N5CCOCC5)cc4c23)CCC1 [Compound 15a]        35
3  O=C(NCCc1ccccn1)Oc1ccc2[nH]c3c4c(c5c(c3c2c1)C(=O)NC5=O)CCC4 [Compound 15m]        31
4  O=C(NCCc1ccccn1)Oc1ccc2[nH]c3c4c(c5c(c3c2c1)C(=O)NC5=O)CCC4 [Compound 15g]        36

IC50 in this record for O=C1NC(=O)c2c1c1c(c3[nH]c4ccc(OC(=O)N5CCN(CCO)CC5)cc4c23)CCC1 [Compound 15l] : 15

IC50 in this record for CN(CCc1ccccn1)C(=O)Oc1ccc2[nH]c3c4c(c5c(c3c2c1)C(=O)NC5=O)CCC4 [Compound 15h] : 39

----------
molecular target: recombinant human PARP (Homo sapiens, UniProt P09874); test: Measurement of PARP enzymatic activity (transfer of radiolabeled ADP-ribose from NAD+ to protein acceptor); assay type: biochemical; conditions: Table 2; read-out: PARP IC50
Sequence (P09874 whole entry): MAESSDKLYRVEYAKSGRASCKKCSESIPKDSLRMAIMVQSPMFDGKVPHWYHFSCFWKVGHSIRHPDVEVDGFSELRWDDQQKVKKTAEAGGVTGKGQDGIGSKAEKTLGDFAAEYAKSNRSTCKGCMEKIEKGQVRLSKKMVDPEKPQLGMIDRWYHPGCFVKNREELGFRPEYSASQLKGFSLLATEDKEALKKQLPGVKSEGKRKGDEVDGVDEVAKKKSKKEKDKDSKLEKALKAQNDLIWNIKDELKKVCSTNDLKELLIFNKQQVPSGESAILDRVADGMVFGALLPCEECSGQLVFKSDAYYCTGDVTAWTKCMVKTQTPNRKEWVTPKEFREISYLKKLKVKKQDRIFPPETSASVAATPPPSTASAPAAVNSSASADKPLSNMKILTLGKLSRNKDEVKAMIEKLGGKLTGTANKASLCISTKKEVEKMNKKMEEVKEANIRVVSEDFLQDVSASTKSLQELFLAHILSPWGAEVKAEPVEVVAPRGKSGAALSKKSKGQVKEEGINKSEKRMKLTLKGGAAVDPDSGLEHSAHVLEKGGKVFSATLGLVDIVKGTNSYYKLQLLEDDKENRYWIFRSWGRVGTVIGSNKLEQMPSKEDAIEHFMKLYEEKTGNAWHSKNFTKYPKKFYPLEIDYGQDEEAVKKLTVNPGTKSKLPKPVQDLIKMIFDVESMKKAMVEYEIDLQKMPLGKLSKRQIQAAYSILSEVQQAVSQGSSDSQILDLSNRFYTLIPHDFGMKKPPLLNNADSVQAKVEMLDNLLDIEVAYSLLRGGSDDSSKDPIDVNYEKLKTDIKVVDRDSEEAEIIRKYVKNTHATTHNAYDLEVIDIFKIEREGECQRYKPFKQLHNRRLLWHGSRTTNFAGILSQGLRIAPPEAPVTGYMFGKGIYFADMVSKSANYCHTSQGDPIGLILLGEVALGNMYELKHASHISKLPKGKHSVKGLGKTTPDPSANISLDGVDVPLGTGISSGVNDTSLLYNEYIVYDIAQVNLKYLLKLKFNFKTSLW
The entries below come with measured pIC50 values attached.
Units for pIC50: none; it is -log10 of a concentration expressed in mol/L.

pIC50 in this record for CC(Br)C(=O)c1ccc2[nH]c3c4c(c5c(c3c2c1)C(=O)NC5=O)CCC4 (stereo not shown) [Compound 2f] : 7.68

pIC50 in this record for CC(C)NCc1ccc2[nH]c3c4c(c5c(c3c2c1)C(=O)NC5=O)CCC4 [Compound 2br] : 7.60

pIC50 in this record for O=C1NC(=O)c2c1c1c(c3[nH]c4ccc(C(=O)N(CCO)CCO)cc4c23)CCC1 [Compound 2dc] : 7.74

pIC50 in this record for Cc1ccc2[nH]c3c4c(c5c(c3c2c1)C(=O)NC5=O)CCC4 [Compound 2bf] : 7.09

pIC50 in this record for CCN(CC)Cc1ccc2[nH]c3c4c(c5c(c3c2c1)C(=O)NC5=O)CCC4 [Compound 2bm] : 7.77

pIC50 in this record for CN(C)Cc1ccc2[nH]c3c4c(c5c(c3c2c1)C(=O)NC5=O)CCC4 [Compound 2bj] : 7.54

pIC50 in this record for NC(CCCNc1nc(-c2ccc3[nH]c4c5c(c6c(c4c3c2)C(=O)NC6=O)CCC5)cs1)C(=O)O (stereo not shown) [Compound 3f] : 7.66

pIC50 in this record for NCCNC(=O)CCC(=O)c1ccc2[nH]c3c4c(c5c(c3c2c1)C(=O)NC5=O)CCC4 [Compound 4e] : 7.66

pIC50 in this record for CC(C)(C)OC(=O)NCCCC(=O)NCc1ccc2[nH]c3c4c(c5c(c3c2c1)C(=O)NC5=O)CCC4 [Compound 2w] : 7.48

pIC50 in this record for O=C(O)CCC(=O)c1ccc2[nH]c3c4c(c5c(c3c2c1)C(=O)NC5=O)CCC4 [Compound 2m] : 8.52

----------
molecular target: recombinant human PARP (Homo sapiens, UniProt P09874); test: Measurement of PARP enzymatic activity (transfer of radiolabeled ADP-ribose from NAD+ to protein acceptor); format: biochemical; settings: Table 2; read-out: PARP IC50
measured-parameter: pIC50
Units for pIC50: none; it is -log10 of a concentration expressed in mol/L.

pIC50 in this record for O=CNCc1ccc2[nH]c3c4c(c5c(c3c2c1)C(O)NC5=O)CCC4 (stereo not shown) : 6.91

pIC50 in this record for O=C(CN1CCCCC1)c1ccc2[nH]c3c4c(c5c(c3c2c1)C(=O)NC5=O)CCC4 : 7.70

pIC50 in this record for COC(=O)c1ccc2[nH]c3c4c(c5c(c3c2c1)C(=O)NC5=O)CCC4 : 7.57

pIC50 in this record for O=C(NCCN1CCCCC1)c1ccc2[nH]c3c4c(c5c(c3c2c1)C(=O)NC5=O)CCC4 : 6.83

----------
molecular target: recombinant human PARP (Homo sapiens); assay: Measurement of PARP enzymatic activity (transfer of radiolabeled ADP-ribose from NAD+ to protein acceptor); assay type: biochemical; conditions: Table 18; read-out: PARP IC50
pIC50: −log10 of the molar value.
Category | rule: reported pIC50 within range, see low value (below 7), medium value (7 to below 8), high value (8 or more)

In [3]: df
Out[3]:
                                   compound  discrete_label
0  CCN(CC)CCOc1cccc2[nH]c3c4c(c5c(c3c12)C(=O)NC5=O)CCC4 [Compound 14e]       low value
1  COc1cnc2[nH]c3c4c(c5c(c3c2c1)C(=O)NC5=O)CCC4 [Compound 8w]      high value
2  CN(C)CN1C(=O)c2c3c(c4[nH]c5ccccc5c4c2C1=O)CCC3 [Compound 16i]    medium value
3  COc1ccc2[nH]c3c4c(c5c(c3c2c1OC)C(=O)NC5=O)CCC4 [Compound 14l]    medium value
4  CCOc1cccc2[nH]c3c4c(c5c(c3c12)C(=O)NC5=O)CCC4 [Compound 14g]    medium value
5  COCCOc1cccc2[nH]c3c4c(c5c(c3c12)C(=O)NC5=O)CCC4 [Compound 14f]    medium value
6  O=C1NC(=O)c2c1c1c(c3[nH]c4nc(O)c(Br)cc4c23)CCC1 [Compound 8p]    medium value
7  CCOc1ccnc2[nH]c3c4c(c5c(c3c12)C(=O)NC5=O)CCC4 [Compound 8y]      high value

For this compound, which bin applies? COc1ccnc2[nH]c3c4c(c5c(c3c12)C(=O)NC5=O)CCC4 [Compound 8x]
high value

For this compound, which bin applies? O=C1NC(=O)c2c1c1c(c3[nH]c4cccc(OCCN5CCOCC5)c4c23)CCC1 [Compound 14d]
low value

For this compound, which bin applies? CCOCCOc1cccc2[nH]c3c4c(c5c(c3c12)C(=O)NC5=O)CCC4 [Compound 14i]
medium value

For this compound, which bin applies? CC(C)Oc1cccc2[nH]c3c4c(c5c(c3c12)C(=O)NC5=O)CCC4 [Compound 14h]
low value

For this compound, which bin applies? O=C1NC(=O)c2c1c1c(c3[nH]c4c(ccc[n+]4[O-])c23)CCC1 [Compound 8l]
medium value

For this compound, which bin applies? CO[n+]1cccc2c3c4c(c5c(c3[nH]c21)CCC5)C(=O)NC4=O [Compound 8o]
high value

For this compound, which bin applies? O=C1NC(=O)c2c1c1c(c3[nH]c4cccc(O)c4c23)CCC1 [Compound 14c]
low value

----------
target: recombinant human PARP (Homo sapiens); test: Measurement of PARP enzymatic activity (transfer of radiolabeled ADP-ribose from NAD+ to protein acceptor); assay type: biochemical; settings: Table 2; read-out: PARP IC50
measured-parameter: pIC50
Units for pIC50: none; it is -log10 of a concentration expressed in mol/L.

Worked cases, pIC50 given:
In [3]: df
Out[3]:
                                   compound  observed
0  O=C1CCC(c2ccc3[nH]c4c5c(c6c(c4c3c2)C(=O)NC6=O)CCC5)=NN1 [Compound 4l]      7.77
1  O=C(O)CCCC(=O)NCc1ccc2[nH]c3c4c(c5c(c3c2c1)C(=O)NC5=O)CCC4 [Compound 2ac]      7.32
2  CCCN(CCC)Cc1ccc2[nH]c3c4c(c5c(c3c2c1)C(=O)NC5=O)CCC4 [Compound 2bl]      7.80

Continue with the compound presented below.
pIC50 in this record for O=C1NC(=O)c2c1c1c(c3[nH]c4ccc(Cl)cc4c23)CCC1 [Compound 2b] : 7.41

Where do the numbers come from? From patent US8716493B2.
